test system: NCI-H460; test: Cytotoxicity against human NCI-H460 cells by MTT assay; format: functional, cell-based
measurement_name: IC50 (µM)
// return numeric value only (unit: µM, not printed)

Data request: Quick check: IC50 of O=C1C(C2(C3(C4=Nc5ccccc5C4=O)Nc4ccccc4C3=O)Nc3ccccc3C2=O)=Nc2ccccc21 (stereo unspecified) [CEPHALINONE D] ?
Data returned: 7.8
